SYSTEM_TESTED: PD-L1 (Homo sapiens, UniProt Q9NZQ7)
Construct: determine if they can specifically dimerize the extracellular domains of PD-L1
Sequence (Q9NZQ7 19-238 limits assumed): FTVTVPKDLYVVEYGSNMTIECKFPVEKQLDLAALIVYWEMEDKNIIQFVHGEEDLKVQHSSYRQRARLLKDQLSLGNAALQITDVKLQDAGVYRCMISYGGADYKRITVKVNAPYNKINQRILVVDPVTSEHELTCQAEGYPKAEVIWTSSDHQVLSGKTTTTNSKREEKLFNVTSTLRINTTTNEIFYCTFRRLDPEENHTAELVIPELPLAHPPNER
Sequence (Q9NZQ7 19-238 limits assumed): as above
EXPERIMENT_SUMMARY: PD-L1/PD-L1 dimerization biochemical protein-protein interaction assay (ALPHA)
Format: binding
TEST_CONDITIONS: compound-induced PD-L1 dimerization, head prints '1 nM' (0.5 nM His-tagged PD-L1 and 0.5 nM FLAG-tagged PD-L1), read-out: AC50 PDL1 Dimer Alpha 1 nM
Record form. Attribute: AC50. Fill in for each entry.
Enter your answer as a number in nM; do not include the unit.

# AC50 measured on PD-L1 (Homo sapiens, UniProt Q9NZQ7) for item COc1nc(-c2cccc(-c3cccc(COc4nc(OCc5cncc(C#N)c5)c(CNC[C@@H](O)CC(=O)O)cc4Br)c3Cl)c2Cl)ccc1C1=NCCN1 [Example 558] = 33.6

# AC50 measured on PD-L1 (Homo sapiens, UniProt Q9NZQ7) for item Cc1c(COc2cc(OCc3cncc(C#N)c3)c(CNC[C@@H](O)CC(=O)O)cc2Cl)cccc1-c1cccc(-c2ccc3sc(CNC[C@@H](O)CC(=O)O)nc3c2)c1C [Example 399] = 289

# AC50 measured on PD-L1 (Homo sapiens, UniProt Q9NZQ7) for item N#Cc1cncc(COc2nc(O[C@H]3CCc4c(-c5cccc(-c6ccc(OCCNCCO)cc6)c5Cl)cccc43)c(Br)cc2CNC[C@@H](O)CC(=O)O)c1 [Example 662] = 14.5

---

SYSTEM_TESTED: PD-1/PD-L1 interaction (Homo sapiens)
Construct: expressed in transfected cells; host or cells: CHO cells (aAPC-PD-L1) co-cultured with Jurkat cells overexpressing PD-1 and an NFAT-luciferase reporter
Sequence (Q9NZQ7 19-290): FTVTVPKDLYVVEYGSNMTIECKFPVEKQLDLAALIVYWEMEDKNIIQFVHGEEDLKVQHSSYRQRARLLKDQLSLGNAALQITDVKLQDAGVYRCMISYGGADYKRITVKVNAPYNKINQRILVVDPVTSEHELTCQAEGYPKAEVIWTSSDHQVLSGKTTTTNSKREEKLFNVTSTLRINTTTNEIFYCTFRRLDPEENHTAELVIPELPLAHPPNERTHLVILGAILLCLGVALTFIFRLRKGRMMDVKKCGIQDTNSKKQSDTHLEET
EXPERIMENT_SUMMARY: PD-1/PD-L1 NFAT reporter co-culture assay
Format: cell-based
TEST_CONDITIONS: Jurkat PD-1 NFAT-luciferase cells co-cultured with aAPC-PD-L1 CHO cells, 6 hrs at 37° C.; read-out: EC50 NFAT Luciferase
Classify: fulfilled when EC50 is strictly less than 400 nM; not fulfilled when EC50 is not.

Inquiry: Please let me know if `COc1nc(-c2cccc(-c3cccc4c3CC[C@@H]4Oc3nc(OCc4cncc(C#N)c4)c(CN[C@@](C)(CO)C(=O)O)cc3Br)c2C)ccc1C1=NCCN1` shows EC50 below 400 nM.
Reply text: fulfilled

Inquiry: Please let me know if `Cc1c(COc2cc(OCc3cncc(C#N)c3)c(CN3CC[C@H]3CO)cc2Br)cccc1-c1cccc(COc2cc(OCc3cncc(C#N)c3)c(CN3CC[C@H]3CO)cc2Br)c1C` shows EC50 below 400 nM.
Reply text: not fulfilled

Inquiry: Please let me know if `COc1nc(OCc2cccc(-c3cccc(COc4ccc(CN[C@@](C)(CO)C(=O)O)c(OC)n4)c3C)c2C)ccc1CN[C@@](C)(CO)C(=O)O` shows EC50 below 400 nM.
Reply text: not fulfilled

Inquiry: Please let me know if `COc1nc(-c2cccc(-c3cccc4c3CC[C@@H]4Oc3ccc(CN[C@@](C)(CO)C(=O)O)c(OCc4cncc(C#N)c4)n3)c2Cl)ccc1C1=NCCN1` shows EC50 below 400 nM.
Reply text: fulfilled

Inquiry: Please let me know if `CCOc1nc(OCc2cccc(-c3cccc(COc4ccc(CNCCO)c(OCC)n4)c3C)c2C)ccc1CNCCO` shows EC50 below 400 nM.
Reply text: not fulfilled

Inquiry: Please let me know if `Cc1c(COc2cc(OCc3cncc(C#N)c3)c(CNCc3ccccn3)cc2Br)cccc1-c1cccc(COc2cc(OCc3cncc(C#N)c3)c(CNCc3ccccn3)cc2Br)c1C` shows EC50 below 400 nM.
Reply text: not fulfilled

Inquiry: Please let me know if `COc1nc(-c2cccc(-c3cccc(-c4ccc5c(CN(C)C)c[nH]c5c4)c3Cl)c2Cl)ccc1CNC[C@@H]1CCC(=O)N1` shows EC50 below 400 nM.
Reply text: not fulfilled

Inquiry: Please let me know if `Cc1c(COc2cc(OCc3cncc(C#N)c3)c(CN[C@@](C)(CO)C(=O)O)cc2Cl)cccc1-c1cccc(-c2ccc(OCCN3CC4(CCC(=O)N4)C3)cc2)c1C` shows EC50 below 400 nM.
Reply text: fulfilled

Inquiry: Please let me know if COC1CN(C2CCc3cc(-c4cccc(-c5cccc(COc6cc(OCc7cncc(C#N)c7)c(CN[C@@](C)(CO)C(=O)O)cc6Cl)c5C)c4C)ccc32)C1 (some centres unmarked) shows EC50 below 400 nM.
Reply text: fulfilled

Inquiry: Please let me know if `COc1nc(OCc2cccc(-c3cccc(COc4nc(OC)c(CN[C@@H]5CCC[C@@H]5C(=O)O)cc4Cl)c3C)c2C)c(Cl)cc1CN[C@@H]1CCC[C@@H]1C(=O)O` shows EC50 below 400 nM.
Reply text: fulfilled

Inquiry: Please let me know if `Cc1c(COc2cc(OCc3cncc(C#N)c3)c(CNC[C@@H](O)CC(N)=O)cc2Cl)cccc1-c1cccc(COc2cc(OCc3cncc(C#N)c3)c(CNC[C@@H](O)CC(N)=O)cc2Cl)c1C` shows EC50 below 400 nM.
Reply text: fulfilled

---

Record form. Attribute: log10 AC50. Fill in for each entry.
SYSTEM_TESTED: PD-L1 (Homo sapiens)
Construct: determine if they can specifically dimerize the extracellular domains of PD-L1
EXPERIMENT_SUMMARY: PD-L1/PD-L1 dimerization biochemical protein-protein interaction assay (ALPHA)
Format: binding
TEST_CONDITIONS: compound-induced PD-L1 dimerization, head prints '1 nM' (0.5 nM His-tagged PD-L1 and 0.5 nM FLAG-tagged PD-L1), read-out: AC50 PDL1 Dimer Alpha 1 nM
Units before log transform: nM; reported quantity: AC50; transform: log10.

# log10 AC50 measured on PD-L1 (Homo sapiens) for item `Cc1c(COc2cc(OCc3cncc(C#N)c3)c(CNC[C@H](O)C(=O)O)cc2Cl)cccc1-c1cccc(COc2cc(OCc3cncc(C#N)c3)c(CNC[C@H](O)C(=O)O)cc2Cl)c1C` = 2.41

# log10 AC50 measured on PD-L1 (Homo sapiens) for item `Cc1c(COc2nc(OC[C@@H]3CCC(=O)N3)c(CNC[C@@H](O)CC(=O)O)cc2Br)cccc1-c1cccc(COc2nc(OC[C@@H]3CCC(=O)N3)c(CNC[C@@H](O)CC(=O)O)cc2Br)c1C` = 2.38

# log10 AC50 measured on PD-L1 (Homo sapiens) for item `N#CCOc1cc(-c2cccc(-c3cccc4c3CC[C@@H]4Oc3nc(OCC#N)c(CNC[C@@H]4CCC(=O)N4)cc3Cl)c2Cl)ccc1CNC[C@@H]1CCC(=O)N1` = 2.02

# log10 AC50 measured on PD-L1 (Homo sapiens) for item `C[C@](CO)(NCc1cc(Br)c(OCc2cccc(-c3cccc(-c4ccc5c(c4)C[C@@H](N)C5)c3Cl)c2Cl)nc1OCc1cncc(S(C)(=O)=O)c1)C(=O)O` = 1.30

# log10 AC50 measured on PD-L1 (Homo sapiens) for item Cc1c(COc2cc(OCc3cncc(C#N)c3)c(CNCCO)cc2Cl)cccc1-c1cccc(-c2ccc3c(c2)CCC3N2CC[C@H](O)C2)c1C (some centres unmarked) = 2.23

# log10 AC50 measured on PD-L1 (Homo sapiens) for item `COc1nc(-c2cccc(-c3cccc4c3CC[C@@H]4Oc3nc(OC)c(CN4CC[C@@H](c5nnn[nH]5)C4)cc3Cl)c2Cl)ccc1CNC[C@@H]1CCC(=O)N1` = 1.54

# log10 AC50 measured on PD-L1 (Homo sapiens) for item `Cc1c(COc2cc(OCc3cncc(C#N)c3)c(CNC[C@@H](O)CC(=O)O)cc2Cl)cccc1-c1cccc(-c2ccc(CN(C)C)cc2)c1Br` = 2.03

# log10 AC50 measured on PD-L1 (Homo sapiens) for item `COc1nc(-c2cccc(-c3cccc(COc4nc(OC)c(CNC[C@@H](O)CC(=O)O)cc4Cl)c3Cl)c2Cl)ccc1CNC[C@@H]1CCC(=O)N1` = 2.13

# log10 AC50 measured on PD-L1 (Homo sapiens) for item `N#Cc1cncc(COc2nc(O[C@H]3CCc4c(-c5cccc6c5CC[C@@H]6Oc5nc(OCc6cncc(C#N)c6)c(C6=NCCN6)cc5Br)cccc43)c(Br)cc2C2=NCCN2)c1` = 1.92

# log10 AC50 measured on PD-L1 (Homo sapiens) for item `Cc1c(COc2cc(OCc3cncc(C#N)c3)c(CNC[C@@H](O)CC(=O)O)cc2Cl)cccc1-c1cccc(-c2ccc3cc(CNC[C@@H](O)CC(=O)O)ccc3n2)c1C` = 2.86

---

SYSTEM_TESTED: PD-L1 (Homo sapiens, UniProt Q9NZQ7)
Construct: determine if they can specifically dimerize the extracellular domains of PD-L1
EXPERIMENT_SUMMARY: PD-L1/PD-L1 dimerization biochemical protein-protein interaction assay (ALPHA)
Format: binding
TEST_CONDITIONS: compound-induced PD-L1 dimerization, head prints '1 nM' (0.5 nM His-tagged PD-L1 and 0.5 nM FLAG-tagged PD-L1), read-out: AC50 PDL1 Dimer Alpha 1 nM
Record form. Attribute: AC50. Fill in for each entry.
Enter your answer as a number in nM; do not include the unit.

Short answer for `Cn1cc(CN2CC3(CCC(=O)N3)C2)c2ccc(-c3cccc(-c4cccc(-c5ccc6c(CN7CC8(CCC(=O)N8)C7)cn(C)c6n5)c4Cl)c3Cl)nc21` : AC50 was 149

Short answer for `Cc1c(COc2cc(OCc3cc(S(C)(=O)=O)cc(S(C)(=O)=O)c3)c(CN[C@@](C)(CO)C(=O)O)cc2Cl)cccc1-c1cccc(-c2ccc(CCCN3CC[C@@H](O)C3)cc2)c1C` : AC50 was 111

Short answer for `COc1nc(O[C@H]2CCc3c(-c4cccc(-c5ccc(C6=N[C@@H](C)CN6)c(OC)n5)c4Cl)cccc32)c(Br)cc1CN1CC[C@H](O)[C@H](F)C1` : AC50 was 2730

Short answer for `COc1cc(-c2cccc(-c3cccc(COc4nc(OC)c(CNC[C@@H]5CCC(=O)N5)cc4Br)c3Cl)c2Cl)ccc1CNC[C@@H]1CCC(=O)N1` : AC50 was 136

Short answer for `C[C@@](CO)(NCc1cc(Cl)c(O[C@H]2CCc3c(-c4cccc5c4CC[C@@H]5Oc4nc(OCc5cncc(S(C)(=O)=O)c5)c(CNCCO)cc4Cl)cccc32)nc1OCc1cncc(S(C)(=O)=O)c1)C(=O)O` : AC50 was 80.8

Short answer for `C[C@@](CO)(NCc1cc(Cl)c(O[C@H]2CCc3c(-c4cccc5c4CC[C@@H]5Oc4ccc(CN5CC[C@@H](O)C5)c(OCc5cncc(S(C)(=O)=O)c5)n4)cccc32)nc1OCc1cncc(S(C)(=O)=O)c1)C(=O)O` : AC50 was 3100

Short answer for `COc1nc(O[C@H]2CCc3c(-c4cccc(-c5cnc(CNC[C@@H]6CCC(=O)N6)c(OC)n5)c4Cl)cccc32)c(Cl)cc1CNC[C@@H]1CCC(=O)N1` : AC50 was 140

Short answer for `COc1cc(-c2cccc(-c3cccc(COc4cc(OCc5cncc(C#N)c5)c(CNC[C@@H](O)CC(=O)O)cc4Cl)c3C)c2C)ccc1C1=NCCN1` : AC50 was 85.2

Short answer for `Cc1c(COc2cc(OCc3cncc(C#N)c3)c(CNC[C@H](O)CC(=O)O)cc2Cl)cccc1-c1cccc(COc2cc(OCc3cncc(C#N)c3)c(CNC[C@H](O)CC(=O)O)cc2Cl)c1C` : AC50 was 236

Short answer for `Cc1c(COc2cc(OCc3cncc(C#N)c3)c(CNC[C@@H](O)CC(=O)O)cc2Cl)cccc1-c1cccc(-c2ccc(CNC[C@@H](O)CC(=O)O)c(-c3ccccc3)c2)c1C` : AC50 was 359
